Experiment: qHTS Screen of the MIPE 4.0 Collection Against Ewings Sarcoma (RDES) (AID 1259252); note: nearly all actives have a fitted effect of over 35% in size
Conditions: RD-ES Ewing sarcoma viability, CellTiter-Glo, 48 h; series mostly up to 45.8 µM
Inconclusive results are not listed. The source made the active and inactive calls. Calls come from the whole dose curve; as a rule, active = well fitted inhibition curve with a large enough effect; inconclusive = small, poorly fitted or top-dose-only effect; inactive = no such curve, though single readings can be large or run the other way.

{"molecule": "CC1CC2C3CCC4=CC(=O)C=C[C@]4(C)[C@@]3(F)[C@@H](O)C[C@]2(C)[C@@]1(O)C(=O)CO (stereo partly drawn)", "outcome": "inactive"}
{"molecule": "NC(=O)N1c2ccccc2CC(=O)c2ccccc21", "outcome": "inactive"}
{"molecule": "Clc1ccccc1CN1CCc2sccc2C1", "outcome": "inactive"}
